Assay: Kinetic solubility (method of Hoelke et al.)
Format: physicochemical
measurement_name: solubility kinetic (µM)

Sample answers from the record:
compound="CCOC(=O)CC[C@@H](NC(=O)[C@@H](NC(=O)CNC(=O)/C=C/c1ccc(O)c(OC)c1)C(C)C)C(=O)OCC [Compound 1]" reported=417
compound="CCOC(=O)[C@@H](CCC(=O)OCCN1CCOCC1)NC(=O)[C@@H](NC(=O)CNC(=O)/C=C/c1ccc(O)c(OC)c1)C(C)C [Compound 35]" reported=209

1: CC/C=C\C/C=C\C/C=C\C/C=C\C/C=C\CCCC(=O)Oc1ccc(/C=C/C(=O)NCC(=O)N[C@H](C(=O)N[C@H](CCC(=O)OCC)C(=O)OCC)C(C)C)cc1OC [Compound 23]
2: CCCC(=O)Oc1ccc(/C=C/C(=O)NCC(=O)N[C@H](C(=O)N[C@H](CCC(=O)OCC)C(=O)OCC)C(C)C)cc1OC [Compound 3]
3: CCOC(=O)CC[C@@H](NC(=O)[C@@H](NC(=O)CNC(=O)/C=C/c1cc(OC)c(O)c(OC)c1)C(C)C)C(=O)OCC [Compound 37]
Prompt: Hi! Can you put these in order of solubility kinetic, lowest number first? Give the labels in the order specified.
Response: 1, 2, 3
(1: 105 µM, 2: 178 µM, 3: 321 µM)
